Items are presented alongside their recorded IC50.
Biological target: IL-17A/F (Homo sapiens, UniProt Q16552+Q96PD4)
Sequence (Q16552 24-155): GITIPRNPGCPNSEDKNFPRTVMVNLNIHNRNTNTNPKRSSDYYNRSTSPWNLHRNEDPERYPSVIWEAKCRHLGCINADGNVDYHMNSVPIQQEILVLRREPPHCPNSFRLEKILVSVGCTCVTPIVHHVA
Sequence (Q96PD4 31-163): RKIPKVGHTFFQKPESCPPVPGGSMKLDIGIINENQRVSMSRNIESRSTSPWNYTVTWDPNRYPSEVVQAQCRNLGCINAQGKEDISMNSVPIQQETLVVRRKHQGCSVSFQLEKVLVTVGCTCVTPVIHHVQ
Test: IL-17A/F HEK-Blue cell assay (SEAP reporter)
Conditions: HEK-Blue IL-17A reporter cells, IL17A/F 5 ng/mL, 20 hours, SEAP read at A630; read-out: HEK-Blue IL17AF (IC50 for IL-17A/F inhibition)

// worked examples, IC50 included
COMPOUND: CCn1nccc1C(=O)N[C@H](c1cn2nc(C[C@H]3C[C@@H](C(F)(F)F)CNC3=O)c(N3CCN(CC4CC4)CC3)nc2n1)C1CCC(F)(F)CC1
SYSTEM_UNDER_TEST: IL-17A/F (Homo sapiens, UniProt Q16552+Q96PD4)
IC50: 0.1 to 1 µM

COMPOUND: CCn1nccc1C(=O)N[C@H](c1cn2nc(C[C@@H]3C(=O)NC[C@H]4C[C@H]43)c(C3CCOCC3)nc2n1)C1CCC(F)(F)CC1
SYSTEM_UNDER_TEST: IL-17A/F (Homo sapiens, UniProt Q16552+Q96PD4)
IC50: > 1 µM

COMPOUND: CCn1nccc1C(=O)N[C@H](c1cn2nc(C[C@H]3C[C@H](C(F)(F)F)CNC3=O)c(C(C)(C)F)nc2n1)C1CCC(F)(F)CC1
SYSTEM_UNDER_TEST: IL-17A/F (Homo sapiens, UniProt Q16552+Q96PD4)
IC50: > 1 µM

COMPOUND: CCn1nccc1C(=O)N[C@H](c1cn2nc(C[C@H]3C[C@@H](C)CNC3=O)c(C(C)C)nc2n1)C1CCC(F)(F)CC1
SYSTEM_UNDER_TEST: IL-17A/F (Homo sapiens, UniProt Q16552+Q96PD4)
IC50: > 1 µM

COMPOUND: CCn1nccc1C(=O)N[C@H](c1cn2nc(CC3C[C@@H](C(F)(F)F)CNC3=O)c(N3C[C@@H]4C[C@H]3CO4)nc2n1)[C@H]1CC[C@H](C)CC1 (single isomer, unassigned) [Compound 108]
SYSTEM_UNDER_TEST: IL-17A/F (Homo sapiens, UniProt Q16552+Q96PD4)
IC50: < 0.1 µM

Prompt: Give the reported IC50 for Cn1nccc1C(=O)N[C@H](c1cn2nc(C[C@H]3C[C@@H](C(F)(F)F)CNC3=O)c(C3CCC(F)(F)CC3)nc2n1)C1CCC(F)(F)CC1 (system: IL-17A/F (Homo sapiens, UniProt Q16552+Q96PD4)).
Response: 0.1 to 1 µM

Prompt: // query: CCn1nccc1C(=O)N[C@H](c1cn2nc(CN3C[C@H](C(F)(F)F)CNC3=O)c(C3CCOCC3)nc2n1)C1CCC(F)(F)CC1
Response: > 1 µM

Prompt: // query: CC(C)n1nccc1C(=O)N[C@H](c1cn2nc(CC3C[C@@H](C(F)(F)F)CNC3=O)c(N3CCOCC3)nc2n1)[C@H]1CC[C@H](C)CC1 (single isomer, unassigned) [Compound 100]
Response: < 0.1 µM

Prompt: // query: CCn1nccc1C(=O)N[C@H](c1cn2nc(C[C@H]3C[C@@H](C(F)(F)F)CNC3=O)c(CN3CC4(C3)CC(F)(F)C4)nc2n1)C1CCC(F)(F)CC1
Response: > 1 µM

Prompt: // query: CCn1nccc1C(=O)N[C@H](c1cn2nc(CC3C[C@@H](C(F)(F)F)CNC3=O)c(N(C)C)nc2n1)C1CCC(F)(F)CC1 (single isomer, unassigned) [Compound 49]
Response: > 1 µM

Prompt: // query: CCn1ncnc1C(=O)N[C@H](c1cn2nc(C[C@H]3C[C@@H](C(F)(F)F)CNC3=O)c(C3CCOCC3)nc2n1)C1CCCCC1
Response: > 1 µM

====

Biological target: IL-17A/F (Homo sapiens, UniProt Q16552+Q96PD4)
Assay: IL-17A/F HEK-Blue cell assay (SEAP reporter)
Conditions: HEK-Blue IL-17A reporter cells, IL17A/F 5 ng/mL, 20 hours, SEAP read at A630; read-out: HEK-Blue IL17AF (IC50 for IL-17A/F inhibition)
pIC50: −log10 of the molar value.
REPORTED_PROPERTY: pIC50

// worked examples, pIC50 included
COMPOUND: CCn1nccc1C(=O)N[C@H](c1cn2nc(CC3C[C@H](C(F)(F)F)CNC3=O)c(N3CCOCC3)nc2n1)C1CCC(F)(F)CC1 (single isomer, unassigned) [Compound 50]
pIC50: < 6.00
--
COMPOUND: CCn1nccc1C(=O)N[C@H](c1cn2nc(C[C@H]3C[C@@H](C(F)(F)F)CNC3=O)c([C@@H](C)N3CCOCC3)nc2n1)C1CCC(F)(F)CC1 (single isomer, unassigned) [Compound 227]
pIC50: 6.00 to 7.00
--
COMPOUND: CCn1nccc1C(=O)N[C@H](c1cn2nc(C[C@H]3C[C@@H](C(F)(F)F)CNC3=O)c(C3CC4CCC(C3)O4)nc2n1)C1CCC(F)(F)CC1 (some centres unmarked) [Compound 153]
pIC50: 6.00 to 7.00

Prompt: Entry under review: CCn1nccc1C(=O)N[C@H](c1cn2nc(C[C@H]3C[C@@H](C(F)(F)F)CNC3=O)c(C(C)(C)F)nc2n1)C1CCC(F)(F)CC1 [Compound 216] . Reported pIC50?
Response: 6.00 to 7.00

Prompt: // query: CCn1nccc1C(=O)N[C@H](c1cn2nc(C[C@H]3C[C@@H](C(F)(F)F)CNC3=O)c(N3CCOCC3)nc2n1)C1CCC(F)(F)CC1 [Compound 46]
Response: 6.00 to 7.00

Prompt: // query: CCn1nccc1C(=O)N[C@H](c1cn2nc(C[C@H]3C[C@@H](C(F)(F)F)CNC3=O)c(N3CCN(C4COC4)CC3)nc2n1)C1CCC(F)(F)CC1 [Compound 433]
Response: 6.00 to 7.00

Prompt: // query: CCc1nonc1C(=O)N[C@H](c1cn2nc(C[C@H]3C[C@@H](C(F)(F)F)CNC3=O)cnc2n1)C1CCC(F)(F)CC1 [Compound 35]
Response: < 6.00

Prompt: // query: CCn1nccc1C(=O)N[C@H](c1cn2nc(CC3C[C@@H](C(F)(F)F)CNC3=O)c(N(C)C)nc2n1)C1CCC(F)(F)CC1 (single isomer, unassigned) [Compound 48]
Response: 6.00 to 7.00

Prompt: // query: CCn1nccc1C(=O)N[C@H](c1cn2nc(C[C@H]3C[C@@H](C(F)(F)F)CNC3=O)c([C@H]3CCCCN3)nc2n1)C1CCC(F)(F)CC1 (single isomer, unassigned) [Compound 325]
Response: < 6.00

Prompt: // query: Cc1nonc1C(=O)N[C@H](c1cn2nc(C[C@H]3C[C@@H](C(F)(F)F)CNC3=O)c(N3CCN(C)C4(CC4)C3)nc2n1)C1CCC(F)(F)CC1 [Compound 411]
Response: < 6.00

Prompt: // query: Cc1nonc1C(=O)N[C@H](c1cn2nc(C[C@H]3C[C@@H](C(F)(F)F)CNC3=O)c(C3CCOCC3)nc2n1)C1CCCCC1 [Compound 313]
Response: < 6.00

====

Items are presented alongside their recorded pIC50.
Target: IL-17A/F (Homo sapiens, UniProt Q16552+Q96PD4)
Experiment: IL-17A/F HEK-Blue cell assay (SEAP reporter)
Conditions: HEK-Blue IL-17A reporter cells, IL17A/F 5 ng/mL, 20 hours, SEAP read at A630; read-out: HEK-Blue IL17AF (IC50 for IL-17A/F inhibition)
pIC50: −log10 of the molar value.

MOLECULE: CCn1nccc1C(=O)N[C@H](c1cn2nc(C[C@@H]3C[C@@H](C(F)(F)F)CNC3=O)cnc2n1)[C@H]1CC[C@H](C)CC1
VALUE_REPORTED: < 6.00
--
MOLECULE: O=C(N[C@H](c1cn2nc(C[C@H]3C[C@@H](C(F)(F)F)CNC3=O)cnc2n1)C1CCC(F)(F)CC1)c1conc1C(F)(F)F
VALUE_REPORTED: < 6.00
--
MOLECULE: CCn1nccc1C(=O)N[C@H](c1cn2nc(C[C@H]3C[C@@H](C(F)(F)F)CNC3=O)c([C@H](C)C3CCOCC3)nc2n1)C1CCC(F)(F)CC1 (single isomer, unassigned)
VALUE_REPORTED: < 6.00

Prompt: Entry under review: CCn1ncnc1C(=O)N[C@H](c1cn2nc(C[C@H]3C[C@@H](C(F)(F)F)CNC3=O)c(C3CCOCC3)nc2n1)C1CCCCCC1 . Reported pIC50?
Response: 6.00 to 7.00

Prompt: // query: CCn1nccc1C(=O)N[C@H](c1cn2nc(CC3C[C@@H](C(F)(F)F)CNC3=O)c(N3CCO[C@@H](C)C3)nc2n1)[C@@H]1CCCC(F)(F)C1 (single isomer, unassigned) [Compound 208]
Response: 6.00 to 7.00

The reported measurements were obtained from patent US20260226068A1.
